Measured values drawn from the Deep4Chem optical property database for this set.

test: photoluminescence quantum yield (fraction); solvent given as SMILES; settings: in CC#N
Hi! Could you tag entries with photoluminescence quantum yield below 0.5 as yes (1), and those at or above as no (0)? Much appreciated.

Take a look at these entries with their results.
- structure notation: "COc1ccc(-c2cc3c(o2)=CC2=Cc4cc5oc(-c6ccc(OC)cc6)cc5n4[B-](F)(F)[N+]=32)cc1"
  assigned class: "no (0)"
- structure notation: "Nc1cccc2cccc(N)c12"
  assigned class: "yes (1)"
- structure notation: "CCOC(=O)CN1C(=O)C2=C(c3ccc(N4CCCCC4)cc3)N(CC(=O)OCC)C(=O)C2=C1c1ccccc1"
  assigned class: "yes (1)"
- structure notation: "N#C/C=C/c1ccc2ccc3cccc4ccc1c2c34"
  assigned class: "yes (1)"
- structure notation: "CCC1(CC)c2cc(C=C(C#N)C#N)ccc2-c2ccc(N(C)C)cc21"
  assigned class: "yes (1)"

hey, is photoluminescence quantum yield for CCCCCCCCC1(CCCCCCCC)c2cc(-c3ccc(C(F)(F)F)cc3)ccc2-c2ccc(N(c3ccc(-n4c5ccccc5c5ccccc54)cc3)c3ccc4c(c3)C(CCCCCCCC)(CCCCCCCC)c3cc(-c5ccc(C(F)(F)F)cc5)ccc3-4)cc21 lower than 0.5 or not?
yes (1)

Another compound: CCC1=C(C)C2=Cc3cscc3B(O)N2C1=O
no (0)

Another compound: Cc1ccc(-n2c3ccccc3c3cc(C=C(C#N)C#N)ccc32)cc1
yes (1)

Another compound: c1ccc(-c2cc(-c3ccc4ccc5c(-c6ccnc(-c7ccccn7)c6)ccc6ccc3c4c65)ccn2)nc1
no (0)

Another compound: C/C=C/c1ccc(OC)c(OC)c1
yes (1)

====

Assign photoluminescence quantum yield to each entry below.
experiment: photoluminescence quantum yield (fraction); solvent given as SMILES; details: in ClC(Cl)Cl
Give bare numbers.

- structure notation: "CCN(CC)c1ccc2cc(/C=C/C(=O)c3cc4ccc(N(CC)CC)cc4oc3=O)c(=O)oc2c1"
  photoluminescence quantum yield: 0.5
- structure notation: "c1ccc(-c2nc3c(-c4ccc(N(c5ccccc5)c5ccccc5)cc4)ccc(-c4ccc(N(c5ccccc5)c5ccccc5)cc4)c3nc2-c2ccccc2)cc1"
  photoluminescence quantum yield: 0.51

Pending compound:
Can you look up the measured photoluminescence quantum yield of Cc1ccc(-n2c3ccccc3c3cc(C=C(C#N)C#N)ccc32)cc1 for me?
0.08

====

assay: photoluminescence quantum yield (fraction); solvent given as SMILES; settings: in C1COCCO1
Decide by photoluminescence quantum yield: equal to or exceeding 0.6 means Met, less means Not met.

Take a look at these entries with their results.
- molecule: "COC(=O)C(Cc1ccc2oc(-c3ccc(N(c4ccccc4)c4ccccc4)cc3)nc2c1)NC(=O)OC(C)(C)C (centres undefined)"
  assigned class: "Not met"
- molecule: "CC1(C)CC(=O)C2=C(C1)Oc1ccc3ccc(O)cc3c1C2c1ccccn1 (centres undefined)"
  assigned class: "Not met"
- molecule: "CN(C)c1ccc(C#Cc2ccccc2)cc1"
  assigned class: "Not met"
- molecule: "COC(=O)c1ccc(/C=C2\\N=C(c3ccccc3)NC2=O)cc1"
  assigned class: "Not met"
- molecule: "Cc1cc2c(o1)c(Br)cc1c(C)cc(=O)oc12"
  assigned class: "Not met"

// inclusive: photoluminescence quantum yield at least 0.6? input: CCCCCCCCC1(CCCCCCCC)c2cc(C#CC#Cc3ccc(N(c4ccccc4)c4ccccc4)cc3)ccc2-c2ccc(C=O)cc21
Met

Another molecule: N#Cc1ccc(/C=C/C=C/C2=NC3C(=O)NC(N)=NC3N2[C@H]2C[C@H](O)[C@@H](CO)O2)cc1 (some centres undefined)
Met

Another molecule: CC1(C)Oc2c(c3nc4ccccc4nc3c3ccccc23)CC1Br (centres undefined)
Not met

Another molecule: CN(c1ccccc1)c1ccc(/C=C2\C(=O)c3ccccc3S2(=O)=O)cc1
Not met

Another molecule: CN(C)c1ccc(C#Cc2ccc(C#N)cc2)cc1
Not met

Another molecule: Cc1cccc(Nc2ccccc2C(=O)O)c1C
Not met

Another molecule: [C-]#[N+]c1ccc(-c2ccc(N(C)C)cc2)cc1
Met

Another molecule: CCCCCCCCCCCCCCCCOc1cc(C#Cc2ccc3ccccc3c2-c2c(C#Cc3cc(OCCCCCCCCCCCCCCCC)c(C#Cc4ccc(C=C(C#N)C#N)cc4)cc3OCCCCCCCCCCCCCCCC)ccc3ccccc23)c(OCCCCCCCCCCCCCCCC)cc1C#Cc1ccc(C=C(C#N)C#N)cc1
Met
